B1: FAM46D (parent)
chain: LELKFVSSLRRQFEFSVDSFQIVL

Variants of: B1
protocol: protein stability index of a GFP-peptide fusion (GPS, HEK-293T) (PSI 1-6); higher = more stable;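 further: lentivirally expressed fusions sorted by FACS into six bins by GFP to DsRed ratio, PSI derived from sequencing read proportions per bin multiplied by bin number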
protocol conditions: c terminus: a fixed tail appended
Kindly supply the reported protein stability index values for the records listed here.
Answers are plain numbers.

Record excerpt, results attached:
[[record]]
alteration = "S8F"
data_value = 1.95

[[record]]
alteration = "V23R"
data_value = 2.76

[[record]]
alteration = "V6Q"
data_value = 1.56


Would you mind giving protein stability index for every variant in the list below?
1. F5R
2. Q21G
3. V6C
4. S8V
5. L24Q
6. S7K

1. 2.39
2. 3.02
3. 2.22
4. 1.71
5. 2.27
6. 2.57

Would you mind giving protein stability index for every variant in the list below?
1. L9W
2. R10M

1: 3.47; 2: 2.72

Would you mind giving protein stability index for every variant in the list below?
1. Q12S
2. S19N

[3.06, 4]

Would you mind giving protein stability index for every variant in the list below?
1. I22P
2. R11Q
3. L9K
4. K4P

4.29
3.05
2.41
3.77

Would you mind giving protein stability index for every variant in the list below?
1. I22K
2. F13E
3. L3S
4. K4C
5. L9F
6. R11S

[1.71, 2.55, 3.84, 3.62, 2.95, 2.99]

Would you mind giving protein stability index for every variant in the list below?
1. E14D
2. L24G
3. V6K
4. L3V
5. Q21N
6. F5Y
7. F5P

[4, 2.6, 3.51, 3, 2.75, 3.22, 3.01]

Would you mind giving protein stability index for every variant in the list below?
1. Q12N
2. V17G
3. D18Q
4. S19D

2.49
2.62
3.71
3.06

Would you mind giving protein stability index for every variant in the list below?
1. S19A
2. R10F
3. K4Y
4. E14P
5. F13R

1: 3.69; 2: 2.79; 3: 2.06; 4: 3.67; 5: 3.23
